# assay_system: human glucagon-like peptide 1 receptor (human, UniProt P43220 24-463)
# Sequence (P43220 24-463): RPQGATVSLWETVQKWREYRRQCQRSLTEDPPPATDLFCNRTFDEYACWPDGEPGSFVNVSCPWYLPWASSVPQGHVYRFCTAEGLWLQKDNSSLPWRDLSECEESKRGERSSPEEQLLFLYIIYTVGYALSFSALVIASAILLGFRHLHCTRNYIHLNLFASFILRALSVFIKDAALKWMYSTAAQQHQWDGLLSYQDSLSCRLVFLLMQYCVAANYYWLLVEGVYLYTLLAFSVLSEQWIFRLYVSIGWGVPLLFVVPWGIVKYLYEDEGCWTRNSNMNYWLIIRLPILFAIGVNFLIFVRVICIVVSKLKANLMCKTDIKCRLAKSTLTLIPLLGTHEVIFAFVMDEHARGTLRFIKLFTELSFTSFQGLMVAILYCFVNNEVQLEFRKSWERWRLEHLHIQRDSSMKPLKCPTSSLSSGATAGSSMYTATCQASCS
# method_notes: cell-based or functional assay
measurement_label: GLP-1R EC50 (cAMP formation in HEK293 cells expressing human GLP-1-R)
Please format your answer as a value with the unit trailing.

Worked cases, GLP-1R EC50 (cAMP formation in HEK293 cells expressing human GLP-1-R) given:
- binder: "H-HSQGTFTSDYSKYLDSRRAKDFIEWLLSA-NH2 [L006-0081]"
  result: "0.14 nmol"
- binder: "H-HSQGTFTSDYSKYLDDRRARDFIDWLLSA-NH2 [L006-0093]"
  result: "0.07 nmol"
- binder: "H-HSQGTFTSDYSKYLDERAAKDFIEWLLSA-NH2 [L006-0108]"
  result: "0.53 nmol"
- binder: "H-HSQGTFTSDYSKYLDERRAKDFIRWLLSA-NH2 [L006-0128]"
  result: "0.16 nmol"

Moving on to the next binder.
GET /values?readout=GLP-1R EC50 (cAMP formation in HEK293 cells expressing human GLP-1-R)&item= H-HSQGTFTSDYSKYLDERRAKDFIQWLLSA-NH2 [L006-0084]
0.07 nmol

meta.source: patent US20110286981A1
